Test system: A549
Test: NCI tumour cell line growth inhibition, 48 h
Active and inactive are the calls of the source. Cut-off read from the data, not from the text of the source: active = GI50 up to about 1.1 µM and inactive = higher.
// GI50 lookup, one value per entry

Example cases with answers are listed next.
O=c1c(Cc2ccc(Cl)cc2)nnc2sc(-c3ccc([N+](=O)[O-])cc3)nn12; 24.3 µM (inactive)
COC(=O)c1ccc2c(c1)CCN2C(=O)c1cc2c(cc1Br)OCO2; 1.74 µM (inactive)
O=C(c1nc2ccccc2nc1O)C(O)c1ccco1 (stereo not given); > 100 µM (inactive)
N#C/N=C(/N)NCN/C(N)=N\C#N; > 100 µM (inactive)

Now consider the entry below.
Specify reported GI50 for the compound shown: C[C@H](C/C=C/C(C)(C)O)[C@H]1CC[C@@]2(C)[C@@H]3CC[C@H]4C(C)(C)[C@@H](O)CC[C@@]45C[C@@]35CC[C@]12C
14.7 µM (inactive)

---

// GI50 lookup, one value per entry
Test system: SN12C
Assay: NCI tumour cell line growth inhibition, 48 h
The source made the active and inactive calls. Rule as the data show it: active = GI50 up to about 1.1 µM and inactive = higher.

Example cases with answers are listed next.
C/C(=N\NC(=S)N1CCN(c2ccccn2)CC1)c1cccc(C)n1; 7.98 µM (inactive)
CN(C)c1ccc(/N=C2/NC(=N\c3ccccc3)/C(=N/c3ccccc3)S2)cc1; > 100 µM (inactive)
CC1(C)CC[C@]2(C)CC=C3[C@]4(C)CC[C@H]5C(C)(C)C(=O)CC[C@]5(C)[C@H]4CC[C@@]3(C)[C@H]2C1; > 100 µM (inactive)

Specify reported GI50 for the molecule shown: C=C1C(=O)C[C@@]23CCC[C@@]12CC(O)C3 (stereo not given in full)
16.9 µM (inactive)

Specify reported GI50 for the molecule shown: COC(=O)/C=C(\C(=O)OC)c1cc(C)c2cc(C(C)C)ccc(C)c1-2
53.3 µM (inactive)

---

// GI50 lookup, one value per entry
Tested on: SF-295
Test: NCI tumour cell line growth inhibition, 48 h
Calls of active or inactive are those of the source. No stated cut-off is given here; in the data, active = GI50 up to about 1.1 µM and inactive = higher.

CC(C)Oc1c(C2(c3ccccc3O)SCCCS2)c(=O)c1=O; > 100 µM (inactive)

Specify reported GI50 for the molecule shown: O=C(c1ccccc1)n1cc(/C=C/[N+](=O)[O-])c2ccccc21
42 µM (inactive)

Specify reported GI50 for the molecule shown: Cc1nc(C)c(N2CCN(C#N)CC2)c(O)n1
> 100 µM (inactive)

Specify reported GI50 for the molecule shown: O=C(O)C(O)C(O)C(O)C(O)CO.[Ba+2] (stereo unspecified)
> 100 µM (inactive)

Specify reported GI50 for the molecule shown: CC1CN=C(N(C(=O)Nc2ccccc2)c2ccc(Cl)c(Cl)c2)S1 (stereo unspecified)
45.5 µM (inactive)

Specify reported GI50 for the molecule shown: COc1cc(C2SC(=N)Nc3c2c(C)nn3C(=O)c2ccccc2O)cc(OC)c1OC (stereo unspecified)
3.51 µM (inactive)

---

Tested on: HCC 2998
Test: NCI tumour cell line growth inhibition, 48 h
Active and inactive are the calls of the source. No stated cut-off is given here; in the data, active = GI50 up to about 1.1 µM and inactive = higher.
measurement_name: GI50

CC1(C)Oc2ccccc2[N+]([O-])=C1c1ccccc1; > 100 µM (inactive)
CC(=O)NC1C(OCc2ccccc2)OC(CO)C(O)C1OCC(=O)N1CCCC1C(=O)N[C@@H](CCC(=O)NCCCCNc1c2ccccc2nc2cccc([N+](=O)[O-])c12)C(N)=O (some centres undefined); 16.1 µM (inactive)
CCOC(=O)/C(=N/Nc1ccc(Cl)cc1)N1C(=S)N(C)N=C(C)C=C1S; > 100 µM (inactive)

Specify reported GI50 for the molecule shown: O=C(Nc1ccc2ccccc2c1)c1cc2cc(CCl)ccc2oc1=O
> 100 µM (inactive)

---

// GI50 lookup, one value per entry
Test system: BT-549
Assay: NCI tumour cell line growth inhibition, 48 h
The source made the active and inactive calls. Rule as the data show it: active = GI50 up to about 1.1 µM and inactive = higher.

Example cases with answers are listed next.
Cc1sc2nc(N(C)C)oc(=O)c2c1C; 15.8 µM (inactive)
Cc1ccc(-c2n[nH]c(CC#N)n2)cc1; > 100 µM (inactive)
O=C(N/N=C/c1ccc(Cl)cc1)c1c(Cl)c(Cl)c(Cl)c(Cl)c1-c1nc2ccccc2[nH]1; > 100 µM (inactive)
Oc1ccc2ccccc2c1/C=N/Cc1c(O)ccc2ccccc12; 45.3 µM (inactive)
O=C(O)c1ccc(OCc2ccccc2)c(Cl)c1; > 100 µM (inactive)

Specify reported GI50 for the compound shown: COc1cc(OC)cc(-n2c(N)c(-c3nc4ccccc4n3C)c3ccc([N+](=O)[O-])cc3c2=O)c1
> 100 µM (inactive)

Specify reported GI50 for the compound shown: COC(=O)c1c(C)ccc2c(O)c3c(cc12)C(=O)c1c2c(cc(O)c1C3=O)C1(C)OC(C)(O2)C(O)C(N(C)C)C1O (centres undefined)
3.61 µM (inactive)

Specify reported GI50 for the compound shown: CC(C)=CCN1c2ccccc2[C@@]2(CC=C(C)C)CCN(C)[C@@H]12 [(+)-DEBROMOFLUSTRAMINE B]
21.9 µM (inactive)

Specify reported GI50 for the compound shown: Cc1ccc(-c2c(C#N)c(-c3ccc([N+](=O)[O-])cc3)c(C#N)c(=O)n2NS(=O)(=O)c2ccccc2)cc1
10.4 µM (inactive)

---

System: M14
Assay: NCI tumour cell line growth inhibition, 48 h
Calls of active or inactive are those of the source. Rule as the data show it: active = GI50 up to about 1.1 µM and inactive = higher.
Would you mind answering with one of these outcomes? active, inactive

Previously resolved entries follow.
CCOC(=O)C1=C(OC(OCC)C([Se]c2ccccc2)C(C)C)CCC1 (stereo not given); inactive
N#C/C(=N/Nc1[nH]cnc1C(N)=O)C(=O)Nc1ccccc1; inactive
COC(=O)CCSC1=CC(=O)c2nc3ccccc3c3ccnc1c23; inactive
N=C(Cc1ccccc1)NCC(=O)O; inactive
COC(=O)c1c(C)ccc2c(O)c3c(cc12)C(=O)c1c2c(cc(O)c1C3=O)C1(C)OC(C)(O2)C(O)C(N(C)C)C1O (stereo not given); inactive

Tell me the recorded outcome of this test for O=C(NNc1nc(-c2ccccc2)cs1)C(F)(F)F .
inactive

Tell me the recorded outcome of this test for COc1ccc(C23C(=O)c4ccccc4N2O[C@H]2C(=O)N(c4ccccc4)C(=O)[C@H]23)cc1 (stereo not given in full) .
inactive

Tell me the recorded outcome of this test for COc1ccc(-c2cs/c(=N\c3ccccc3)n2CC(O)c2ccc([N+](=O)[O-])cc2)cc1 (stereo not given) .
inactive

Tell me the recorded outcome of this test for Cc1ccc(-c2c(C#N)c(-c3ccc([N+](=O)[O-])cc3)c(C#N)c(=O)n2NS(=O)(=O)c2ccccc2)cc1 .
inactive

Tell me the recorded outcome of this test for CC1OC(CC(=O)O)CC2=C1C(=O)c1c(O)cccc1C2=O (stereo not given) .
active

---

Test system: LOX IMVI
Test: NCI tumour cell line growth inhibition, 48 h
Active and inactive are the calls of the source. Cut-off read from the data, not from the text of the source: active = GI50 up to about 1.1 µM and inactive = higher.
Would you mind answering with one of these outcomes? True for active, False for inactive

Previously resolved entries follow.
C#Cc1c(C)c(/C=C/C(C)=C\C(=O)OC)n(C)c1C; False
COc1cc([C@@H]2c3cc4c(cc3[C@@H](OC(=O)c3ccc(N)cc3)C3COC(=O)[C@@H]32)OCO4)cc(OC)c1O (stereo not given in full); False
Nc1nc(Nc2ccc(Cl)cc2)sc1C(=O)c1c[nH]c2ccccc12; False
Cn1cnc([N+](=O)[O-])c1Sc1nnc(-c2ccc(Cl)cc2)n1C; False
O=[N+]([O-])c1ccc(N/N=C2\C=CCCC2)c([N+](=O)[O-])c1; False

Tell me the recorded outcome of this test for O=c1c(Cc2ccc(Cl)cc2)nnc2sc(-c3ccc([N+](=O)[O-])cc3)nn12 .
False

Tell me the recorded outcome of this test for CCCCCCCCCCC(C)CCCCCCC(=O)O (stereo not given) .
False

Tell me the recorded outcome of this test for O=Cc1c(C(=O)O)[nH]c(=O)[nH]c1=O .
False

Tell me the recorded outcome of this test for O=c1c2ccccc2n2c(-c3ccc(O)cc3)nnc2n1-c1ccccc1 .
False

Tell me the recorded outcome of this test for CCOC(=O)c1c(C)noc1/N=N/N(CCO)CCO .
False

Tell me the recorded outcome of this test for CSc1nnc(CCC(=O)Nc2c(C)cccc2C)o1 .
False

Tell me the recorded outcome of this test for O=C(c1ccc(O)cc1)C1c2c3c(cc(O)c2C(c2ccc(O)cc2)C1c1cc(O)cc(O)c1)OC(c1ccc(O)cc1)C3c1cc2c(cc1O)OC(c1ccc(O)cc1)C2c1cc(O)cc(O)c1 (stereo not given) .
False

Tell me the recorded outcome of this test for COC(=O)c1ccccc1/C=C1\Cc2ccc3c(c2C1=O)CCC3 .
False

Tell me the recorded outcome of this test for Cn1c2ccccc2c2c(-c3ccccc3)cc3c(c21)C(=O)C=CC3=O .
False

Tell me the recorded outcome of this test for CCCCCCCNC(P(=O)(O)O)P(=O)(O)O .
False

Tell me the recorded outcome of this test for N#CCCN(c1ccc(-c2nnc(NC(=O)CNNC(=O)CC(=O)Nc3ccccc3)s2)cc1)S(=O)(=O)c1ccccc1 .
False

Tell me the recorded outcome of this test for Cc1c2ccnc(-c3ccccc3)c2cc2c1[nH]c1ccccc12 .
True
